Measured values drawn from patent US20240254138A1 for this set.

MEASUREMENT TARGET: CDK7/cyclinH/MAT1 trimeric complex (Homo sapiens, UniProt P50613)
Sequence (P50613 whole entry): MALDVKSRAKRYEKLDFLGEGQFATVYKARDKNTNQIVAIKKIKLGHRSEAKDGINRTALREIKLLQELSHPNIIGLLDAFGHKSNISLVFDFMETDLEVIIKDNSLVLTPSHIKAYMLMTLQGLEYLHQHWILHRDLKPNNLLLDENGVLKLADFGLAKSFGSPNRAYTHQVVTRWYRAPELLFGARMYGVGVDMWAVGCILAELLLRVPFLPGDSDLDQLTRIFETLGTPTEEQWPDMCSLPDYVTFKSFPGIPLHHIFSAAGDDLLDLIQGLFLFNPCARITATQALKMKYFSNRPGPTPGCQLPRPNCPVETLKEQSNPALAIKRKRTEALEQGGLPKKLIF
Sequence (P51946 whole entry partner): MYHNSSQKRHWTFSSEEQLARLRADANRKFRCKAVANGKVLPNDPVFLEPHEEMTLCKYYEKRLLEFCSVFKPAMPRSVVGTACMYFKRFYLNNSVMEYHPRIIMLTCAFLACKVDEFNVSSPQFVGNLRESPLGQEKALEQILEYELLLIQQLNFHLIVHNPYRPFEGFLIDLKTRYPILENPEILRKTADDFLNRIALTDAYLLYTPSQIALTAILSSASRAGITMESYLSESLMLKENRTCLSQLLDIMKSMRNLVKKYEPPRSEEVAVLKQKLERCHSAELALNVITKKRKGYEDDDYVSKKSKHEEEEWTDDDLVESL
Sequence (P51948 whole entry partner): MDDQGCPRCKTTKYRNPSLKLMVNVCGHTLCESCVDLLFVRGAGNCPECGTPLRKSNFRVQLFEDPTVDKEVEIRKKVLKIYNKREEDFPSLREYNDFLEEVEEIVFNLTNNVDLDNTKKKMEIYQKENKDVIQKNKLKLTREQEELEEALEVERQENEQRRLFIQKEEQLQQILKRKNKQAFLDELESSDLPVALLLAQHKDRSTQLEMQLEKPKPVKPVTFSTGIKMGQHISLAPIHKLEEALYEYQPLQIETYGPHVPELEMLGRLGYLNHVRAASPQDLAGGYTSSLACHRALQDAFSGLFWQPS
PROTOCOL SUMMARY: In vitro CDK7 assay, potency of irreversible covalent inhibitors (kinact/KI), coupled PK/LDH ADP readout at 340 nm
CONDITION LABEL: 20 nM enzyme
CDK7 (20 nM enz.) (kinact/KI, M^−1*s^−1) values by entry
Number only, in M⁻¹ s⁻¹; omit the unit.

Example cases with answers are listed next.
compound=C=CC(=O)N1CC(N2CCC(c3ccc4c(c3)Nc3nccc(N5CCOCC5)c3CO4)CC2)C1 assay_result=1012.54
compound="C=CC(=O)N1CC(N2CC[C@H](c3ccc4c(c3)Nc3nccc(N5CCOCC5)c3CO4)[C@@H](F)C2)C1 (single isomer, unassigned) [Compound 109]" assay_result=5.9
compound="C=CC(=O)N1CCC(N2CC(c3ccc4c(c3)Nc3nccc(C5CCOCC5)c3CO4)C2)CC1 [Compound 96]" assay_result=255.867

For the compound CC#CC(=O)N1CC(N2CCC(c3cc4c(c(C#N)n3)O[C@@H](C)c3c(N5CCOCC5)ccnc3N4)CC2)C1 (single isomer, unassigned) [Compound 520] , what CDK7 (20 nM enz.) (kinact/KI, M^−1*s^−1) is on record?
2981

For the compound CC#CC(=O)N1CC(N2CCC(c3cc4c(c(C)n3)O[C@H](C)c3c(N5CCOCC5)ccnc3N4)CC2)C1 (single isomer, unassigned) [Compound 370] , what CDK7 (20 nM enz.) (kinact/KI, M^−1*s^−1) is on record?
206.483
